Data provenance: the Human Domainome abundance scans (Beltran et al. 2025)

B1: Retinoic acid receptor beta, residues 85 to 161; numbered along this chain, P10826 (parent)
chain: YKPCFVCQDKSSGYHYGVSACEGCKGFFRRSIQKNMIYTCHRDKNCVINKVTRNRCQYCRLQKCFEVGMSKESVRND

# Variants of: B1
# Procedure Details: abundance fitness (aPCA) (normalised: wild type 0, dead -1); higher = more abundant; growth selection in yeast, the domain comes from the species named
# Experimental Parameters: Homo sapiens
abundance fitness below -0.08 gives Not satisfied; abundance fitness at or above it gives Satisfied.

{"columns": ["Changes", "Cat"],
 "data": [
  ["Q33W", "Not satisfied"],
  ["K34M", "Satisfied"],
  ["D9M", "Not satisfied"],
  ["S19P", "Satisfied"],
  ["K25R", "Satisfied"]
]}

Does abundance fitness meet or surpass -0.08 for Y16C ?
Not satisfied

Does abundance fitness meet or surpass -0.08 for C56R ?
Not satisfied

Does abundance fitness meet or surpass -0.08 for V6S ?
Not satisfied

Does abundance fitness meet or surpass -0.08 for I48M ?
Satisfied

Does abundance fitness meet or surpass -0.08 for C4R ?
Not satisfied

Does abundance fitness meet or surpass -0.08 for N49W ?
Not satisfied

Does abundance fitness meet or surpass -0.08 for C40G ?
Not satisfied
